Answer each item with its documented pKd.
- target entity: T1, native human ApoC3 (human, UniProt P02656 21-99, biotinylated in the captured-antigen assays (Tables 6 and 8); sites not stated)
- T1 construct: also called nhuApoC3; native huApoC3
- T1 sequence (P02656 21-99): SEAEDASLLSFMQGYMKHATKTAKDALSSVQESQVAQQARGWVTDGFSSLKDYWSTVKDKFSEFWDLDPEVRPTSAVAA
- experimental details: SPR, antigen immobilized on CM5 chip, IgG as analyte, pH 7.4
Give bare numbers, as −log10 of the molar value.

Reference set (2 entries):
binder	pKd
29A05 IgG (antibody, V domains shown) VH: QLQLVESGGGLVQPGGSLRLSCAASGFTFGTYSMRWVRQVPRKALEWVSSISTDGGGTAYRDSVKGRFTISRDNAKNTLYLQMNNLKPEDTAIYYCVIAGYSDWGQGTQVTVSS VL: DVVLTQTPGSLSVVPGESASISCKASQSLVYSDGKTYLYWLLQKPGQSPQRLIYQVSNRDSGVPDRFTGSGSGTDFTLKISGVKVEDAGVYYCAQGTYWPKTFGQGTKLEIK	9.80
29F10 IgG (antibody, V domains shown) VH: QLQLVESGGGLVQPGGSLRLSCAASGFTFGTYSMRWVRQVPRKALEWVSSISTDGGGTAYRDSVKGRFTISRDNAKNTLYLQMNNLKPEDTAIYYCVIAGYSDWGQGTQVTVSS VL: DVVLTQTPGSLSVVPGEPASVSCKASQSLVHPDGKTYLYWLLQKPGQSPQRLIYQVSNRGSGVPDRFTGSGSGTDFTLEISGVKAEDAGVYYCAQGTYWPKTFGQGTKLEIK	10.40

Quick one: pKd of 30D10 IgG (antibody, V domains shown) VH: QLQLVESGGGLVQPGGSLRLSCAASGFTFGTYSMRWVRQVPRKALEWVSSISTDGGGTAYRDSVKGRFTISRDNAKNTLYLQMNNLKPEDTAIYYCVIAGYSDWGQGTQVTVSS VL: DVVLTQTPGSLSVVPGESASISCTASQSLRHSDGRTYLYWLRQKPGQSPQRLIKRVSTRDPGVPDRFTGSGSGTDFTLKISGVRAEDAGVYYCAQGTYYPLTFGQGTKVELK ?
9.82
